Each recorded value in this set is attributed to patent US20170334899A1.

- system: CDK2/CycE (Homo sapiens)
- Construct: GST
- assay text: CDK2/CycE kinase assay (TR-FRET)
- details: avg, read-out: CDK2 avg (IC50 [mol/l])
pIC50: −log10 of the molar value.
experimental readout: pIC50

Problem: // returns reported pIC50 for input Cc1nsc(Nc2cnc(C(F)(F)F)cn2)c1C(=O)Nc1ccc(F)c(OCC2CCN(CCF)CC2)c1
Result: ≤ 4.70

Problem: Another molecule: Cc1nsc(Nc2cnc(C(F)(F)F)cn2)c1C(=O)Nc1ccc(O[C@@H]2CCN(CC(F)F)C[C@H]2F)nc1
Result: < 4.70

Problem: Next entry: Cc1nsc(Nc2cnc3ccccc3n2)c1C(=O)Nc1ccc(OCCC(=O)OC(C)(C)C)nc1
Result: < 4.70

Problem: For Cc1nsc(Nc2cnc(C(F)(F)F)cn2)c1C(=O)Nc1ccc(OCC2CCN(CC(F)(F)F)C2)nc1 (centres unmarked) then?
Result: ≤ 4.70

Problem: Consider next the molecule Cc1nsc(Nc2cncc(C(F)(F)F)n2)c1C(=O)Nc1ccc(OCCCNC(=O)OC(C)(C)C)nc1 in the same way.
Result: < 4.70
